Value source: paper PMC9775191

# Tested on: G. duodenalis BRIS/91/HEPU/1279
# method.summary: Primary Giardia screen at 10 µM (live-cell imaging, automated counting)
# Assay type: cell-based, Giardia duodenalis
# condition.parameters: 48 h, first singlicate assay
# Experimental: Each compound was assessed in singlicate, at a final concentration of 10 μM (0.4 μL of a 5 mM stock; diluted to a final volume of 200 μL in culture medium; 0.2% DMSO). […] Plates were incubated in sealed chambers filled with 3% O2, 5% CO2 in N2 and growth was assessed at 24 and 48 h using live cell imaging and automated counting as previously described. […] The reliability of these assays was assessed by calculating Z’ factors for each plate as previously described.
observed.property: % Inhibition n=1 48h (%)
Numbers only; they are read as %.

Retrieve % Inhibition n=1 48h measured for COc1ccc(N2C(=O)c3cc(-c4ccco4)nn3CC2(C)C(=O)NC(C)(C)C)cc1 (stereo not drawn) [SN00787372] and print it. 16.8

In one line, give reported % Inhibition n=1 48h of the entry COc1ccc2cc(-c3csc(Cc4nc(-c5ccccn5)no4)n3)c(=O)oc2c1 [SN00797738] . 2.5

Report % Inhibition n=1 48h for CN1C(=O)CC(C(=O)NNC(=O)COc2ccccc2-c2ccccc2)C1c1cccnc1 (stereo not drawn) [SN00780071] 9.4

Note down % Inhibition n=1 48h recorded for CCCNC(=O)c1cnn2c(C(F)F)cc(-c3ccc(C)cc3)nc12 [SN00783826] 40.8

// Input: O=c1n(Cc2cccc(Br)c2)nc2c(S(=O)(=O)N3CCOCC3)cccn12 [SN00798020] . Output its % Inhibition n=1 48h only. 0.0

Quote % Inhibition n=1 48h reported for COCC1CN(C(=O)c2ccc(OC)cc2)CC12CCOCC2 (stereo not drawn) [SN00801332] please. 24.3

Fill in reported % Inhibition n=1 48h for this entry: CCC(C)(NCc1ncc(-c2cccs2)o1)c1nccs1 (stereo not drawn) [SN00783193] 26.6

// Input: COc1cc(NC(=O)C2CCCN(c3nc4ccccc4[nH]c3=O)C2)cc(OC)c1 (stereo not drawn) [SN00790089] . Output its % Inhibition n=1 48h only. 0.0

Retrieve % Inhibition n=1 48h measured for Cc1ccc(-c2cc(C(=O)N3CC(C)CC(C)C3)c3ccccc3n2)o1 (stereo not drawn) [SN00783691] and print it. 7.2

Give % Inhibition n=1 48h for CCOc1ccc(S(=O)(=O)Nc2cccc(-c3ccc(OC)nn3)c2)cc1 [SN00792604] 10.8

Quick one: give measured % Inhibition n=1 48h for COc1cccc(Cn2c(CNC(=O)CCc3c(C)noc3C)nc3cccnc32)c1 [SN00793247] 17.5

Provide only the value of recorded % Inhibition n=1 48h for Cc1ccccc1-c1noc(Cn2c(-c3ccccn3)noc2=O)n1 [SN00781291] 0.0

Read off the recorded % Inhibition n=1 48h for Cc1cccc(-c2noc(CN3CC(n4cc(C)cn4)C3)n2)c1 [SN00772979] 6.1

Specify % Inhibition n=1 48h for Cc1ccc(NS(=O)(=O)c2ccc(-n3cccn3)cc2)cc1 [SN00794732] and stop. 6.0

Supply recorded % Inhibition n=1 48h for CCNC(=O)C1CCCN1C(=O)c1cccc(NC(=O)c2ccc(Br)cc2)c1 (stereo not drawn) [SN00794777] here. 0.0

Look up % Inhibition n=1 48h of Cn1ncc2c(=O)[nH]c(CN3CCN(c4cnccn4)CC3)nc21 [SN00807797] and report it. 0.0

Report % Inhibition n=1 48h, nothing else, for this compound: COc1ccccc1-c1cc(C(=O)N2CCCN(c3ccc(=O)n(-c4ccc(C)c(C)c4)n3)CC2)[nH]n1 [SN00791007] 8.7

Give % Inhibition n=1 48h for the following compound: COC(=O)CNC(=O)c1cn(-c2ccc(C(F)(F)F)cn2)nn1 [SN00771716] 0.0

Dear colleague, please send me the reported % Inhibition n=1 48h for O=C(/C=C/c1cccc([N+](=O)[O-])c1)Nc1ccc2c(c1)nc1n2CCCCC1 [SN00770035] when you can. 0.0

Please report % Inhibition n=1 48h for the following compound: Cc1cc(C(=O)N2CCCN(Cc3cnn(C)c3)CC2)on1 [SN00782463] 0.0

Report measured % Inhibition n=1 48h; entry is CC(C)C(=O)N1CCc2c(c(COCc3ccccc3F)nn2C)C1 [SN00796410] 0.0
